biological target: UniProtKB Q12809; test: Inhibition of IKr (unknown origin) at 30 uM
Sequence (Q12809 whole entry): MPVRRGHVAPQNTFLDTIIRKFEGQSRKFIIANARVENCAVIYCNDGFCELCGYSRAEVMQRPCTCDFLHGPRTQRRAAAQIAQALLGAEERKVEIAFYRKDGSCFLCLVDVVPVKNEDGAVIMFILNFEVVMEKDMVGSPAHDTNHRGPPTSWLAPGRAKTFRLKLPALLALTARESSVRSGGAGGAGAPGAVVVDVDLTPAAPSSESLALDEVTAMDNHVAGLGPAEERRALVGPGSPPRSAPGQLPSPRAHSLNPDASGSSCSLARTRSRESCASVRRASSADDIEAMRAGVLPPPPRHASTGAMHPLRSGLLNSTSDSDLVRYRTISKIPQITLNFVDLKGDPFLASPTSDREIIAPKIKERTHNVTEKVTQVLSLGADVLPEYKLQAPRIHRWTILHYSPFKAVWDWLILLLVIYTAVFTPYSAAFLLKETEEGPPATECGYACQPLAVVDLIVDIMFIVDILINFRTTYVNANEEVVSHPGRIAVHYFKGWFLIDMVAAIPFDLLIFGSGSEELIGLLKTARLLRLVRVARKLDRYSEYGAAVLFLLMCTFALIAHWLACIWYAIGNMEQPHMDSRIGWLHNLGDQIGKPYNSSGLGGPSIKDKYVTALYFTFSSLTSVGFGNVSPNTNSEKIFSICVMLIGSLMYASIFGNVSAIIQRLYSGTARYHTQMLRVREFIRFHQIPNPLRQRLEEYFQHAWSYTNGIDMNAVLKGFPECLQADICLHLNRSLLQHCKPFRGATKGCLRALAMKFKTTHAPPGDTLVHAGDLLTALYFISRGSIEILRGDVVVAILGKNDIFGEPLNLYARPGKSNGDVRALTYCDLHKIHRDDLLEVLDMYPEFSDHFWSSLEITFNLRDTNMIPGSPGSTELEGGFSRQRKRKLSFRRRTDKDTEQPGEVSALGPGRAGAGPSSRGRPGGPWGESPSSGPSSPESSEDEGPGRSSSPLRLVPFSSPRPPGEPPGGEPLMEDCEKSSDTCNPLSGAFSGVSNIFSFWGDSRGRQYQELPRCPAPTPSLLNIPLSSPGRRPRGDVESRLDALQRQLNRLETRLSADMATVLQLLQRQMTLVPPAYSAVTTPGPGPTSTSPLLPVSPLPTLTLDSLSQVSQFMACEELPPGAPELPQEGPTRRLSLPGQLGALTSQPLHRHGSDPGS
Measurement label: inhibition at 30 µM

// Input: CCNC1=N[C@@H]2[C@@H](O)[C@H](O)[C@@H](C(F)F)O[C@@H]2S1 . Output its inhibition at 30 µM only.
< 50%

---

assay: AUC (0 to 24 hrs) in rat brain at 10 mg/kg, po measured upto 24 hrs; type: ADME, organism-based; set-up: dose 10 mg/kg, time < 24 hr, route oral; settings: in vivo
Measurement label: log10 AUC (log10 of the value in nM·h/g)
Friendly reminder: values = log10 of AUC, unit nM·h/g.

{"columns": ["Compound smiles", "Result"],
 "data": [
  ["CNC1=N[C@@H]2C[C@H](O)[C@@H](C(F)F)O[C@@H]2S1", 1.73]
]}

Dear reader, for each entry below, please note its log10 AUC.
1. CCNC1=N[C@@H]2[C@@H](O)[C@H](O)[C@@H](CO)O[C@@H]2S1
2. CCNC1=N[C@@H]2[C@@H](O)[C@H](O)[C@@H](C(F)F)O[C@@H]2S1
3. CNC1=N[C@@H]2[C@H](F)[C@H](O)[C@@H](C(F)F)O[C@@H]2S1

0.06
0.98
1.56

Note log10 AUC for the molecule shown: CN(C)C1=N[C@@H]2[C@@H](O)[C@H](O)[C@@H](C(F)F)O[C@@H]2S1
0.69

---

experiment: Oral bioavailability in rhesus monkey at 3 mg/kg; type: ADME, organism-based, Macaca mulatta; conditions: in vivo
Measurement label: bioavailability (%)
Answers are plain numbers, in %.

Give me measured bioavailability, please, for this compound: CCNC1=N[C@@H]2[C@@H](O)[C@H](O)[C@@H](C(F)F)O[C@@H]2S1
9

---

assay: Drug excretion in rat bile at 10 mg/kg, po; format: ADME, organism-based; conditions: read-out: Drug excretion
Measurement label: dose excreted (%)
Give bare numbers, in %.

Tell me measured dose excreted for [3H][C@@]1(O)[C@@H](C(F)F)O[C@@H]2SC(NCC)=N[C@@H]2[C@H]1O please.
17

---

test: Volume of distribution at steady state in Wistar Han rat at 1 mg/kg, iv or 3 mg/kg, po; format: ADME, organism-based; conditions: in vivo, read-out: Vdss
Measurement label: Vd (L/kg)
Numbers only, in L/kg.

// for each molecule in input: emit Vd
1. CNC1=N[C@@H]2[C@H](F)[C@H](O)[C@@H](CF)O[C@@H]2S1
2. CNC1=N[C@@H]2[C@H](F)[C@H](O)[C@@H](CO)O[C@@H]2S1

[0.85, 2]

---

assay: Clearance in Beagle dog at 1 mg/kg, iv; format: ADME, organism-based, Canis lupus familiaris; conditions: in vivo
Measurement label: clearance (mL/min/kg)
Give bare numbers, in mL/min/kg.

Retrieve clearance measured for CCNC1=N[C@@H]2[C@@H](O)[C@H](O)[C@@H](C(F)F)O[C@@H]2S1 and print it.
11.7

---

assay: Protein binding in human plasma; assay type: ADME, cell-free; settings: read-out: PPB
Measurement label: fraction unbound

Tell me its fraction unbound given CCNC1=N[C@@H]2[C@@H](O)[C@H](O)[C@@H](C(F)F)O[C@@H]2S1 as the entry.
> 0.95

---

assay: Ratio of drug level in rat blood to plasma; type: ADME, cell-free; conditions: whole blood
Measurement label: blood plasma ratio

Indicate its recorded blood plasma ratio; the molecule in question is CCNC1=N[C@@H]2[C@@H](O)[C@H](O)[C@@H](C(F)F)O[C@@H]2S1
0.9 to 1.1
